- System: U251 CNS
- procedureDetails: NCI-60 one-dose screen, 48 h (100 = growth as untreated, 0 = no growth, -100 = all killed)
- testParameters: 10 µM unless noted
The panel holds about 83,000 compounds, 20% with a hit somewhere; the sample as a whole holds those more often.
Property: growth; scope: individual compounds
Lab book: enter the figure in %, no units written.

Below, 3 compounds whose answers are already recorded.
# compound, endpointResult
records = [
    ("Cc1nc([N+](=O)[O-])c(Sc2nncc(-c3ccccc3)n2)n1C", 79.4),
    ("O=C(CCl)N(c1ccccc1)c1ccccc1", 98.1),
    ("O=[N+]([O-])/C(=C/c1ccccc1)c1ccccc1", 97.4),
]

Task: What value of measured growth is listed for COc1ccc(NC(=O)/C(=C/N2C(=O)/C(=C/c3ccc(OC)c(OC)c3)NC2=S)C(C)=O)cc1 ?
Output: 57.3

Task: What value of measured growth is listed for CCCCCCCCCCCC[n+]1ccccc1 (tested in a mixture with another compound) ?
Output: -24.1

Task: What value of measured growth is listed for CCCCCCN(CCCCCC)CCCNc1nccc2ccccc12 ?
Output: 9.66

Task: What value of measured growth is listed for O=C/C=C/c1ccc([N+](=O)[O-])cc1 ?
Output: 95.5

Task: What value of measured growth is listed for OC(CSc1ccccc1)CN1CCN(c2ccc(Cl)cc2)CC1 (configuration not stated) ?
Output: 95.2

Task: What value of measured growth is listed for C/C(=N/NC(N)=S)c1ccc(C)cc1 ?
Output: 84.9

Task: What value of measured growth is listed for Cc1onc(-c2ccccc2)c1C(=O)N/N=C/c1cc(Cl)cc(Cl)c1O ?
Output: 25

Task: What value of measured growth is listed for Nc1nc(N)c2cc(Sc3cccc(C(F)(F)F)c3)ccc2n1 ?
Output: 19.2

Task: What value of measured growth is listed for N=C1C=C(N)C(=O)c2ccccc21 ?
Output: -72.1

Task: What value of measured growth is listed for CN(C)c1ccc2cc3c(cc2c1)Oc1ccccc1N3.[Cl][Zn][Cl] ?
Output: 78.7

Task: What value of measured growth is listed for CCCCCCCCCCCC[S+](C)CC(=O)[O-] (configuration not stated) ?
Output: 43.7

Task: What value of measured growth is listed for Oc1ccc(Cl)cc1C(c1cc(Cl)ccc1O)C(Cl)(Cl)Cl ?
Output: 11.8

Task: What value of measured growth is listed for CCN(CC)CC(O)CNc1ccc(NCC2CO2)c2c1C(=O)c1ccccc1C2=O (configuration not stated) ?
Output: -51.8

Task: What value of measured growth is listed for CCCOC(=O)c1nc(N(CC2CCCCC2)C(=O)NC)sc1/N=C/c1ccccc1 ?
Output: 5.96

Task: What value of measured growth is listed for COc1cc(/C=C2\SC(=S)N(/C=C/c3nc4ccccc4[nH]c3=O)C2=O)cc(OC)c1OC ?
Output: 81.8
